# target-desc: human metabotropic glutamate receptor 1a (mGluR1a) (Homo sapiens)
# Sequence (Q13255 19-1194): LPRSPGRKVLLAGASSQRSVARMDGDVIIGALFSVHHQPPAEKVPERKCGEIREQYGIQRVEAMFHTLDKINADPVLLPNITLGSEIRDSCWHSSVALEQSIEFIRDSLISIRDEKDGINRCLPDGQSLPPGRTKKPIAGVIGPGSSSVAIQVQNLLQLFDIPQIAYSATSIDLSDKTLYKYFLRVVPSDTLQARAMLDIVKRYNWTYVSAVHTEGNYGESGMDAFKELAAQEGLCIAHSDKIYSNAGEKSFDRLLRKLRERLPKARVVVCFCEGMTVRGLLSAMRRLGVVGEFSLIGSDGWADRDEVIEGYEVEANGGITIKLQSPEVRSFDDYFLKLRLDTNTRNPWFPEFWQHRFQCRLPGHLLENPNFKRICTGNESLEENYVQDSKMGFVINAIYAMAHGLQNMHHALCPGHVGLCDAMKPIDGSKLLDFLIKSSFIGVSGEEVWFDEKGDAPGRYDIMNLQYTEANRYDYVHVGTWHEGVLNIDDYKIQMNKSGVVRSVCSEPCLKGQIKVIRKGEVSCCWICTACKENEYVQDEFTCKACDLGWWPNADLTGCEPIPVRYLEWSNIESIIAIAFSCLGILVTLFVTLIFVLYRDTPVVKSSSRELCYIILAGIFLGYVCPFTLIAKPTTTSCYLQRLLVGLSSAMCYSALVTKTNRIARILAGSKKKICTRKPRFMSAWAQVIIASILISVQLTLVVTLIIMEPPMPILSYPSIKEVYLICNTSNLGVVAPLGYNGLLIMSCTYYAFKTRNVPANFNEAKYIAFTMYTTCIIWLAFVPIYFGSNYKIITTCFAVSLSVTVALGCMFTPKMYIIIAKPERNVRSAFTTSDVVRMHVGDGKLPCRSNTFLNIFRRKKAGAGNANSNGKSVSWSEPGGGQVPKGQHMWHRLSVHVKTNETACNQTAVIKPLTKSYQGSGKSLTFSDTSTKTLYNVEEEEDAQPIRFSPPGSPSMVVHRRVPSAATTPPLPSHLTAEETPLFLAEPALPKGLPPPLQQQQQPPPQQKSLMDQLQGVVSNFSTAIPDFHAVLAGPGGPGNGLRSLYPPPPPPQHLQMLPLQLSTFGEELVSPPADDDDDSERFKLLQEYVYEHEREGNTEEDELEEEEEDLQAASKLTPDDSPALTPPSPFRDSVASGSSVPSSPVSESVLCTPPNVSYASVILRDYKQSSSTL
# method: mGluR1 inhibiting effect: intracellular calcium concentration (FLIPR) in mGluR1a-expressing CHO cells
# details: suppression of calcium increase by 10 μM glutamic acid, test compound added 5 min before agonist
assay-metric: pIC50
Kindly note that pIC50 refers to -log10 of the concentration in mol/L and answer with the value alone.

Examples with answers:
| mol-smiles | pIC50 |
| --- | --- |
| Cc1c(-c2ccc3nc(CC(C)(C)O)ccc3c2)nnn1-c1ccc(F)cc1 | 8.62 |
| Cc1c(-c2ccc3c(c2)CC2(CC2)C3=O)nnn1-c1cccnc1F | 8.64 |
| Cc1c(-c2ccc3c(c2)CN(CC(C)(C)O)C3=O)nnn1-c1ccc(F)cc1 | 7.74 |

We now examine a further compound.
Q. What pIC50 value was documented for this compound, `Cc1c(-c2ccc3c(c2)CN(C2CC2)C3=O)nnn1-c1ccccc1F` ?
A. 8.37

Values were extracted from patent US7902369B2.
